The reported measurements were obtained from the supplement of paper PMC11451515.

# System: P12-Ichikawa
# test-description: cell viability relative to DMSO control; higher = less cytotoxic
# test-settings: RPMI 5 mM glucose + 10% dialyzed FBS; 48 h; 0.00702 µM
The reader will find reported cell viability values listed item by item below.
endpoint: cell viability

{"columns": ["line-notation", "endpoint", "val"],
 "data": [
  ["CN1CCC[C@@H]1CCO[C@](C)(c1ccccc1)c1ccc(Cl)cc1", "cell viability", "111%"],
  ["Cc1cc(C(=O)N2CCN(c3cccc(Cl)c3)CC2)n(-c2ccccc2)n1", "cell viability", "105%"],
  ["CN(C)CCCN1c2ccccc2CCc2ccc(Cl)cc21", "cell viability", "125%"],
  ["CN[C@@H](C)C(=O)N[C@H]1CN(C(=O)CC(C)C)CC[C@H]2CC[C@@H](C(=O)NC(c3ccccc3)c3ccccc3)N2C1=O", "cell viability", "101%"],
  ["CO/C1=C/C(C)=C\\[C@@H](C)[C@@H](O)[C@@H](C)C/C(C)=C\\C=C/[C@H](OC)[C@@H]([C@@H](C)[C@@H](O)[C@H](C)[C@@]2(O)C[C@@H](O)[C@H](C)[C@@H](C(C)C)O2)OC1=O", "cell viability", "88.3%"],
  ["COc1ccc2c(c1)c(CC(=O)OCC(=O)O)c(C)n2C(=O)c1ccc(Cl)cc1", "cell viability", "116%"],
  ["COC1=CC=C(C=C1O)C/2=C/C(=O)C3=C(O2)C=C(O)C=C3O", "cell viability", "81.7%"],
  ["Cc1cc(Nc2nc(N[C@@H](C)c3ccc(F)cc3)c(C#N)cc2F)n[nH]1", "cell viability", "104%"]
]}

* * *

# Tested on: NOMO1
# test-description: cell viability relative to DMSO control; higher = less cytotoxic
# test-settings: RPMI 5 mM glucose + 10% dialyzed FBS; 48 h; 5.12 µM
The reader will find reported cell viability values listed item by item below.
endpoint: cell viability (%)

{"columns": ["compound", "val"],
 "data": [
  ["CC[C@]12\\C=C/CN3CC[C@]4([C@@H](N(C)C5=CC(=C(C=C45)[C@]6(C[C@H]7C[C@H](CN(C7)CC8=C6[NH]C9=C8C=CC=C9)C(C)(F)F)C(=O)OC)OC)[C@](O)([C@@H]1OC(C)=O)C(=O)OC)[C@H]23", 27.5],
  ["CC/1=C(/C(CC(=O)N1)C2=CC=C(C=C2)C(F)(F)F)C(=O)NC3=C(F)C=C4[NH]N=CC4=C3 (centres undefined)", 92.1],
  ["O=C(O)CCn1c2c(c3ccccc31)C[C@H](N[S+](=O)([O-])c1ccc(F)cc1)CC2", 103],
  ["CCCCCCCCCC(=O)N[C@@H](Cc1c[nH]c2ccccc12)C(=O)N[C@H](CC(N)=O)C(=O)N[C@@H](CC(=O)O)C(=O)N[C@@H]1C(=O)NCC(=O)N[C@@H](CCCN)C(=O)N[C@@H](CC(=O)O)C(=O)N[C@H](C)C(=O)N[C@@H](CC(=O)O)C(=O)NCC(=O)N[C@H](CO)C(=O)N[C@@H]([C@@H](C)CC(=O)O)C(=O)N[C@@H](CC(=O)c2ccccc2N)C(=O)O[C@@H]1C", 102],
  ["CC(C)c1cnn2c(NCc3ccccc3)cc(NCCCCCCN)nc12", 110],
  ["CCCCC(C=O)NC(=O)C(CC(C)C)NC(=O)OCc1ccccc1 (centres undefined)", 77.6],
  ["O=C(c1ccc(F)c(F)c1Nc1ccc(I)cc1F)N1CC(O)([C@@H]2CCCCN2)C1", 10.1],
  ["C/C(O)=C(\\C#N)C(=O)Nc1cc(Br)ccc1Br", 82.5],
  ["CN1CCCC(CC1)N2\\N=C(CC3=CC=C(Cl)C=C3)/C4=C(C=CC=C4)C2=O (centres undefined)", 112],
  ["COC/1=C/C=C2\\C(=C/C1=O)[C@H](CCC3=CC(=C(OC)C(=C23)OC)OC)NC(C)=O", 14.3],
  ["Cc1csc(NC(=O)c2sc3nc4c(c(C(F)(F)F)c3c2N)CCC4)n1", 96.3],
  ["CN(C)CC[C@H](c1ccc(Cl)cc1)c1ccccn1", 89.5],
  ["COc1ccc([C@@H]2CC(=O)c3c(O)cc(O[C@@H]4O[C@H](CO[C@@H]5O[C@@H](C)[C@H](O)[C@@H](O)[C@H]5O)[C@@H](O)[C@H](O)[C@H]4O)cc3O2)cc1O", 114],
  ["CC[C@@]1(O)C(=O)OCC/2=C1/C=C3\\N(CC4=CC5=CC(=CC=C5N=C34)O)C2=O", 24.5]
]}

* * *

# Test system: NOMO1
# test-description: cell viability relative to DMSO control; higher = less cytotoxic
# test-settings: HPLM + 10% dialyzed FBS; 48 h; 0.569 µM
The reader will find reported cell viability values listed item by item below.
endpoint: cell viability (%)

{"columns": ["molecule", "measurement-units", "val"],
 "data": [
  ["COCCOc1nc(-c2ccc(Cl)c(Cl)c2)n(-c2ccc(NC(=O)CCl)cc2)n1", "%", 96.6],
  ["CC(C)c1cc(C(=O)N2Cc3ccc(CN4CCN(C)CC4)cc3C2)c(O)cc1O", "%", 70.8],
  ["Cc1csc(NC(=O)c2sc3nc4c(c(C(F)(F)F)c3c2N)CCC4)n1", "%", 99.4],
  ["COc1ncnc(N[S+](=O)([O-])c2ccc(N)cc2)c1OC", "%", 97.6],
  ["COC1=CC=C(C=C1O)C/2=C/C(=O)C3=C(O2)C=C(O)C=C3O", "%", 95.3],
  ["C[S+](=O)([O-])c1ccc(-c2cnc(N)c(C(=O)Nc3ccccc3)n2)cc1", "%", 123],
  ["CCC(=O)N[C@H]1CC[C@H](C(=O)N(C)c2ccc(-c3nc4ccccc4o3)cc2)C1", "%", 97.6],
  ["OC(=O)C(CC/1=C/C(=O)NC2=CC=CC=C12)NC(=O)C3=CC=C(Cl)C=C3 (centres undefined)", "%", 131],
  ["CC1=C(CC(=O)O)c2cc(F)ccc2/C1=C\\c1ccc([S+](C)[O-])cc1 (centres undefined)", "%", 140]
]}

* * *

The reader will find reported cell viability values listed item by item below.
# System: SEM cells
# test-description: cell viability relative to DMSO control; higher = less cytotoxic
# test-settings: HPLM + 10% dialyzed FBS; 48 h; 5.12 µM

{"columns": ["compound", "measurement-units", "cell viability"],
 "data": [
  ["O=C(O)/C=C/c1ccc(O)c(O)c1", "%", 112],
  ["CC1(C)CNc2cc(NC(=O)c3cccnc3NCc3ccncc3)ccc21", "%", 96.3],
  ["O=C(c1ccc(F)c(F)c1Nc1ccc(I)cc1F)N1CC(O)([C@@H]2CCCCN2)C1", "%", 69.2],
  ["COc1cc2nc(N3CCN(C(=O)C4CCCO4)CC3)nc(N)c2cc1OC (centres undefined)", "%", 116],
  ["CC[C@@]1(O)C(=O)OCC/2=C1/C=C3\\N(CC4=CC5=CC(=CC=C5N=C34)O)C2=O", "%", 7.73],
  ["CCC(=C/[C@H](C)C/C=C/C(C)=C/[C@@H](C)C(=O)[C@@H](C)[C@H](O)[C@@H](C)C/C(C)=C/C(=O)O)/C=C/[C@@H]1OC(=O)C=C[C@@H]1C", "%", 5.63],
  ["CNCc1ccc(-c2[nH]c3cc(F)cc4c3c2CCNC4=O)cc1", "%", 155],
  ["CN1C(=O)C[C@H](C(=O)N[C@@H](Cc2cnc[nH]2)C(=O)N2CCC[C@H]2C(N)=O)NC1=O", "%", 116],
  ["N#Cc1ccnc(Nc2cc(C3CCN(C4COC4)CC3)cc(N3CCC(F)(F)C3)n2)c1", "%", 102]
]}

* * *

The reader will find reported AUC of viability dose-response curve values listed item by item below.
# Tested on: NOMO1
# test-description: AUC of viability dose-response curve (% viability x log10 dose units); higher = less sensitive
# test-settings: HPLM + 10% dialyzed FBS; 48 h
endpoint: AUC of viability dose-response curve

{"columns": ["compound", "endpoint", "val"],
 "data": [
  ["CN1c2ccccc2C(=O)N2CCc3c([nH]c4ccccc34)C21 (centres undefined)", "AUC of viability dose-response curve", 445],
  ["Cc1[nH]c(/C=C2\\C(=O)Nc3ccccc32)c(C)c1CCC(=O)O", "AUC of viability dose-response curve", 433],
  ["CN(C)CCOc1ccc(-c2nc(-c3ccncc3)c(-c3ccc4c(c3)CC/C4=N\\O)[nH]2)cc1", "AUC of viability dose-response curve", 450],
  ["Cc1cnc(C(=O)O)c[n+]1[O-]", "AUC of viability dose-response curve", 400],
  ["CC(C)(O)Cn1c(NC(=O)c2ccc(-c3cn[nH]c3)s2)nc2cc(CN3CCOCC3)ccc21", "AUC of viability dose-response curve", 352],
  ["Cc1cc(C(=O)N2CCN(c3cccc(Cl)c3)CC2)n(-c2ccccc2)n1", "AUC of viability dose-response curve", 364],
  ["CCc1nc(-c2cccc(C)c2)c(-c2ccnc(NC(=O)c3ccccc3)c2)s1", "AUC of viability dose-response curve", 461],
  ["CCCCC(C=O)NC(=O)C(CC(C)C)NC(=O)OCc1ccccc1 (centres undefined)", "AUC of viability dose-response curve", 409],
  ["O=C1Nc2ccc(I)cc2/C1=C/c1cc(Br)c(O)c(Br)c1", "AUC of viability dose-response curve", 469]
]}
